All figures here come from ChEMBL document CHEMBL4138104.

Experiment: Induction of apoptosis in AML01 cells isolated from acute myelogenous leukemia patient after 24 hrs by annexin V/7-AAD/propidium iodide staining-based flow cytometric method
Assay type: functional, cell-based
Conditions: Homo sapiens, AML01, 24 h
pEC50: −log10 of the molar value.
parameterMeasured: pEC50

| molecule | observedMeasurement |
| --- | --- |
| C=C1C(=O)O[C@@H]2[C@H]3O[C@]3(C)CC/C=C(/COC(=O)/C=C/c3c[nH]c4ccccc34)CC[C@@H]12 | 5.89 |
| C=C1C(=O)O[C@@H]2[C@H]3O[C@]3(C)CC/C=C(/COC(=O)c3cc4ccccc4[nH]3)CC[C@@H]12 | 5.46 |
| C=C1C(=O)O[C@@H]2[C@H]3O[C@]3(C)CC/C=C(/COC(=O)c3cc4cc(OC)ccc4[nH]3)CC[C@@H]12 | 5.52 |
| C=C1C(=O)O[C@@H]2C3O[C@]3(C)CC/C=C(\C)CC[C@@H]12 (some centres undefined) | 5.28 |

----------
Tested on: SW-620
Test: Growth inhibition of human SW620 cells incubated for 48 hrs by sulforhodamine B assay
Format: functional
Conditions: SW-620, 48 h
parameterMeasured: GI50 (nM)

| compound | parameterMeasured | valueUnits | observedMeasurement |
| --- | --- | --- | --- |
| C=C1C(=O)O[C@@H]2[C@H]3O[C@]3(C)CC/C=C(/COC(=O)c3cc4ccccc4s3)CC[C@@H]12 | GI50 | nM | 510 |
| C=C1C(=O)O[C@@H]2[C@H]3O[C@]3(C)CC/C=C(/COC(=O)c3cc4ccccc4[nH]3)CC[C@@H]12 | GI50 | nM | 250 |
| C=C1C(=O)O[C@@H]2C3O[C@]3(C)CC/C=C(\C)CC[C@@H]12 (some centres not stated) | GI50 | nM | 14500 |
| C=C1C(=O)O[C@@H]2[C@H]3O[C@]3(C)CC/C=C(/COC(=O)/C=C/c3c[nH]c4ccccc34)CC[C@@H]12 | GI50 | nM | 180 |
| C=C1C(=O)O[C@@H]2[C@H]3O[C@]3(C)CC/C=C(/COC(=O)c3c[nH]c4ccccc34)CC[C@@H]12 | GI50 | nM | 230 |
| C=C1C(=O)O[C@@H]2[C@H]3O[C@]3(C)CC/C=C(/COC(=O)c3cc4ccccc4o3)CC[C@@H]12 | GI50 | nM | 660 |
| C=C1C(=O)O[C@@H]2[C@H]3O[C@]3(C)CC/C=C(/COC(=O)c3cc4cc(OC)ccc4[nH]3)CC[C@@H]12 | GI50 | nM | 640 |
| CN(C)CC1C(=O)O[C@@H]2[C@H]3O[C@]3(C)CC/C=C(/COC(=O)c3cc4ccccc4[nH]3)CC[C@@H]12.O=C(O)/C=C/C(=O)O (some centres not stated) | GI50 | nM | 1700 |
| C=C1C(=O)O[C@@H]2[C@H]3O[C@]3(C)CC/C=C(/COC(=O)c3cn(C)c4ccccc34)CC[C@@H]12 | GI50 | nM | 300 |
| C=C1C(=O)O[C@@H]2[C@H]3O[C@]3(C)CC/C=C(/COC(=O)CCCc3c[nH]c4ccccc34)CC[C@@H]12 | GI50 | nM | 1840 |
| C=C1C(=O)O[C@@H]2[C@H]3O[C@]3(C)CC/C=C(/COC(=O)c3cc4cc(Cl)ccc4[nH]3)CC[C@@H]12 | GI50 | nM | 1400 |
| C=C1C(=O)O[C@@H]2[C@H]3O[C@]3(C)CC/C=C(/COC(=O)c3cc4cc(F)ccc4[nH]3)CC[C@@H]12 | GI50 | nM | 1430 |

----------
Experiment: Potency index, ratio of melampomagnolide-B EC50 to compound EC50 for human M9-ENL1 cells
Assay type: functional

| chemicalSmiles | Ratio IC50 |
| --- | --- |
| C=C1C(=O)O[C@@H]2[C@H]3O[C@]3(C)CC/C=C(/COC(=O)c3cn(C)c4ccccc34)CC[C@@H]12 | 2 - 20 |
| C=C1C(=O)O[C@@H]2[C@H]3O[C@]3(C)CC/C=C(/COC(=O)c3cc4cc(Cl)ccc4[nH]3)CC[C@@H]12 | 2 - 20 |
| C=C1C(=O)O[C@@H]2[C@H]3O[C@]3(C)CC/C=C(/COC(=O)c3sc4ccccc4c3Cl)CC[C@@H]12 | 2 - 20 |
| C=C1C(=O)O[C@@H]2[C@H]3O[C@]3(C)CC/C=C(/COC(=O)c3cc4ccccc4s3)CC[C@@H]12 | 2 - 20 |
| C=C1C(=O)O[C@@H]2[C@H]3O[C@]3(C)CC/C=C(/COC(=O)/C=C/c3c[nH]c4ccccc34)CC[C@@H]12 | >20 |
| C=C1C(=O)O[C@@H]2[C@H]3O[C@]3(C)CC/C=C(/COC(=O)c3cc4ccccc4[nH]3)CC[C@@H]12 | 2 - 20 |
| C=C1C(=O)O[C@@H]2[C@H]3O[C@]3(C)CC/C=C(/COC(=O)c3c[nH]c4ccccc34)CC[C@@H]12 | 2 - 20 |

----------
System: NCI-H23
Assay: Growth inhibition of human NCI-H23 cells incubated for 48 hrs by sulforhodamine B assay
Format: functional
Details: NCI-H23, 48 h

| compound | GI50 / nM |
| --- | --- |
| C=C1C(=O)O[C@@H]2C3O[C@]3(C)CC/C=C(\C)CC[C@@H]12 (stereo partly drawn) | 20200 |
| C=C1C(=O)O[C@@H]2[C@H]3O[C@]3(C)CC/C=C(/COC(=O)c3cc4cc(Cl)ccc4[nH]3)CC[C@@H]12 | 1630 |
| C=C1C(=O)O[C@@H]2[C@H]3O[C@]3(C)CC/C=C(/COC(=O)c3cn(C)c4ccccc34)CC[C@@H]12 | 1930 |
| CN(C)CC1C(=O)O[C@@H]2[C@H]3O[C@]3(C)CC/C=C(/COC(=O)c3cc4ccccc4[nH]3)CC[C@@H]12.O=C(O)/C=C/C(=O)O (stereo partly drawn) | 1960 |
| C=C1C(=O)O[C@@H]2[C@H]3O[C@]3(C)CC/C=C(/COC(=O)/C=C/c3c[nH]c4ccccc34)CC[C@@H]12 | 1250 |
| C=C1C(=O)O[C@@H]2[C@H]3O[C@]3(C)CC/C=C(/COC(=O)c3c[nH]c4ccccc34)CC[C@@H]12 | 1630 |
| C=C1C(=O)O[C@@H]2[C@H]3O[C@]3(C)CC/C=C(/COC(=O)c3cc4ccccc4o3)CC[C@@H]12 | 1980 |
| C=C1C(=O)O[C@@H]2[C@H]3O[C@]3(C)CC/C=C(/COC(=O)c3cc4cc(OC)ccc4[nH]3)CC[C@@H]12 | 1490 |

----------
System: HOP-62
Assay: Growth inhibition of human HOP62 cells incubated for 48 hrs by sulforhodamine B assay
Format: functional
Settings: HOP-62, 48 h
Recorded GI50 for the following molecules

| chemicalSmiles | GI50 (nM) |
| --- | --- |
| C=C1C(=O)O[C@@H]2[C@H]3O[C@]3(C)CC/C=C(/COC(=O)c3cc4ccccc4o3)CC[C@@H]12 | 2480 |
| C=C1C(=O)O[C@@H]2[C@H]3O[C@]3(C)CC/C=C(/COC(=O)c3cc4cc(F)ccc4[nH]3)CC[C@@H]12 | 2920 |
| C=C1C(=O)O[C@@H]2[C@H]3O[C@]3(C)CC/C=C(/COC(=O)c3cc4cc(OC)ccc4[nH]3)CC[C@@H]12 | 1640 |

----------
Test system: K562
Assay: Growth inhibition of human K562 cells incubated for 48 hrs by sulforhodamine B assay
Assay type: functional
Conditions: K562, 48 h
// GI50 lookup, one value per entry

| chemicalSmiles | testedSystem | GI50 |
| --- | --- | --- |
| C=C1C(=O)O[C@@H]2[C@H]3O[C@]3(C)CC/C=C(/COC(=O)/C=C/c3c[nH]c4ccccc34)CC[C@@H]12 | K562 | 270 nM |
| C=C1C(=O)O[C@@H]2[C@H]3O[C@]3(C)CC/C=C(/COC(=O)c3cc4cc(OC)ccc4[nH]3)CC[C@@H]12 | K562 | 560 nM |
| C=C1C(=O)O[C@@H]2[C@H]3O[C@]3(C)CC/C=C(/COC(=O)c3cn(C)c4ccccc34)CC[C@@H]12 | K562 | 400 nM |

----------
Test system: NCI-H460
Assay: Growth inhibition of human NCI-H460 cells incubated for 48 hrs by sulforhodamine B assay
Type: functional
Details: NCI-H460, 48 h

| compound | GI50 [µM] |
| --- | --- |
| C=C1C(=O)O[C@@H]2[C@H]3O[C@]3(C)CC/C=C(/COC(=O)c3cc4cc(F)ccc4[nH]3)CC[C@@H]12 | 3.04 |
| CN(C)CC1C(=O)O[C@@H]2[C@H]3O[C@]3(C)CC/C=C(/COC(=O)c3cc4ccccc4[nH]3)CC[C@@H]12.O=C(O)/C=C/C(=O)O (stereo partly drawn) | 5.85 |
| C=C1C(=O)O[C@@H]2[C@H]3O[C@]3(C)CC/C=C(/COC(=O)c3cc4ccccc4[nH]3)CC[C@@H]12 | 1.73 |
